# Target under test: FLT4 (Homo sapiens)
# Sequence (P35916 25-1363): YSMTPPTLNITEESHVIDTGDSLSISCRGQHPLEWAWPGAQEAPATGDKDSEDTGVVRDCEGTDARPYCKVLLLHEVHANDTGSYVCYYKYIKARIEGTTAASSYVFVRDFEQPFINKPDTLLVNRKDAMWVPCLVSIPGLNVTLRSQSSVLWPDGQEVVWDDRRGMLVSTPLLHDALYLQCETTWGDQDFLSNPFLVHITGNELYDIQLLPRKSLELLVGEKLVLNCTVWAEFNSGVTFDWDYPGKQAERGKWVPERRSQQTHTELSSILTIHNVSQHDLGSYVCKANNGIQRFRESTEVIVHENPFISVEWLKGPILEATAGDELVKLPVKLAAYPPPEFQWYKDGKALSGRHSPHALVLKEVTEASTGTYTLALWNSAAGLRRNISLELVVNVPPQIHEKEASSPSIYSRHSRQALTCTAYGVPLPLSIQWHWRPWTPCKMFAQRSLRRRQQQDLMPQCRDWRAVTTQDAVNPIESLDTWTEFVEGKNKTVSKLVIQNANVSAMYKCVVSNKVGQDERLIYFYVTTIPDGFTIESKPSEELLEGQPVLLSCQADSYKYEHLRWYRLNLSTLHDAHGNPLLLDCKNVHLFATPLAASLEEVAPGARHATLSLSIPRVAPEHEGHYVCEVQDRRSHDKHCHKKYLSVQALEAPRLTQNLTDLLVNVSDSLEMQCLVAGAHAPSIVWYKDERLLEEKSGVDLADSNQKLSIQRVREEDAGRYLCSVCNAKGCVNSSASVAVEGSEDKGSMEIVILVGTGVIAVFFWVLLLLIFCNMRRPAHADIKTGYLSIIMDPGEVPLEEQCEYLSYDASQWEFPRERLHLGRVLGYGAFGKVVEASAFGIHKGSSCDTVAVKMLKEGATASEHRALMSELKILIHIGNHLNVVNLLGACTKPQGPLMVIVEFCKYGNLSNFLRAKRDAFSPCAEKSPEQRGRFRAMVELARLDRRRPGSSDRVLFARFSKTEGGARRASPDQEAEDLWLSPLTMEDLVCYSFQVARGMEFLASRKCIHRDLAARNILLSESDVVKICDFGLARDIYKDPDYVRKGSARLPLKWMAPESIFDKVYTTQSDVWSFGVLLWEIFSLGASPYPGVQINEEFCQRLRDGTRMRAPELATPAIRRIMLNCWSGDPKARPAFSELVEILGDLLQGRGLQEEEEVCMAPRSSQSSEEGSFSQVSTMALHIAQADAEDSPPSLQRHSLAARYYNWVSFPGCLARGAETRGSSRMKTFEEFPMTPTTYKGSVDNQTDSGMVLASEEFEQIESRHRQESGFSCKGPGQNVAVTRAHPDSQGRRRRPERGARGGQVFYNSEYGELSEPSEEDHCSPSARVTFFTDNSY
# Protocol details: KINOMEscan competition binding
# Experimental parameters: read-out: %Inh FLT4
The label depends only on inhibition at 1 µM: class 1 if it is at least 30%, class 0 if it is smaller.

Molecule | Category
O=c1cc(N2CCOCC2)nc2n(Cc3cccc(Cl)c3Cl)c(C3CC3)nn12 [UNC10225469A] | class 0
Cn1cc(-c2cnc(N)c3c(-c4ccc5c(c4)CCN5C(=O)Cc4ccccc4)csc23)cn1 [UNC10225012A] | class 1
COc1cccc(OC)c1C(=O)Nc1cccc(-c2nn3ccccc3c2-c2ccnc(Nc3cccc(F)c3)n2)c1 [UNC10225310A] | class 0
CS(=O)(=O)Cc1ccc(Nc2nccc(-c3c(-c4cccc(NC(=O)C5CCCCC5)c4)nn4ncccc34)n2)cc1 [UNC10225159A] | class 1
Cc1ccc(NC(=O)Nc2cccc(C(F)(F)F)c2)cc1 [UNC10225187A] | class 0

----------
# Target under test: KIT (Homo sapiens, UniProt P10721)
# Sequence (P10721 26-976): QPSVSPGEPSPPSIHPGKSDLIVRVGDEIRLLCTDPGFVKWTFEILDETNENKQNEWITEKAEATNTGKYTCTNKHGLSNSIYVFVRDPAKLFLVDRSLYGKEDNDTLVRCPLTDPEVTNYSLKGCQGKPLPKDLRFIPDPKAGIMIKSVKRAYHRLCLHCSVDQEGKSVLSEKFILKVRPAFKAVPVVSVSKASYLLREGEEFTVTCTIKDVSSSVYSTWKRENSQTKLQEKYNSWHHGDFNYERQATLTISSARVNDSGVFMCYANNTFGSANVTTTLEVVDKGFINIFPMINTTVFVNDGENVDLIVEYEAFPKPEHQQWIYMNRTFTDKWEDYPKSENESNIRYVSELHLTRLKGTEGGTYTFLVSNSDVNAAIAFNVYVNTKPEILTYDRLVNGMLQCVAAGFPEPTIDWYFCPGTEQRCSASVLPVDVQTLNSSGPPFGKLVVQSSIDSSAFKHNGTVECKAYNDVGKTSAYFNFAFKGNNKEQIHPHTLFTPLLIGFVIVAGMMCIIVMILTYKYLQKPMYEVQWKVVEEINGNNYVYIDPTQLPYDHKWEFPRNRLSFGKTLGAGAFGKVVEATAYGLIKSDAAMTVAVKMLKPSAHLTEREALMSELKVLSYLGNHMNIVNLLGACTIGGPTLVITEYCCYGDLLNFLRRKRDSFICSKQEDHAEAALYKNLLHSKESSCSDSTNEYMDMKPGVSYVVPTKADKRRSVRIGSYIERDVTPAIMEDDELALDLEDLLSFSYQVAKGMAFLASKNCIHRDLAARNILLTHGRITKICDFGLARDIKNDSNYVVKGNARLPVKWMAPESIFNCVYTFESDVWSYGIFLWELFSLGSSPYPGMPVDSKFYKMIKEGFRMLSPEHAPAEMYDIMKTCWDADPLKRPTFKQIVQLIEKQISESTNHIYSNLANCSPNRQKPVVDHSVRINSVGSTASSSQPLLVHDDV
# Protocol details: KINOMEscan competition binding
# Experimental parameters: read-out: %Inh KIT
Let's look at some molecules and their measured inhibition at 1 µM.
Observed property: inhibition at 1 µM (%)

Molecule | Meas value
Cc1ccc(NC(=O)Nc2cccc(C(F)(F)F)c2)cc1 [UNC10225187A] | 91.4
COc1cccc(OC)c1C(=O)Nc1cccc(-c2nn3ccccc3c2-c2ccnc(Nc3cccc(F)c3)n2)c1 [UNC10225310A] | 90.9
Cn1cc(-c2cnc(N)c3c(-c4ccc5c(c4)CCN5C(=O)Cc4ccccc4)csc23)cn1 [UNC10225012A] | 100
CS(=O)(=O)Cc1ccc(Nc2nccc(-c3c(-c4cccc(NC(=O)C5CCCCC5)c4)nn4ncccc34)n2)cc1 [UNC10225159A] | 88
O=c1cc(N2CCOCC2)nc2n(Cc3cccc(Cl)c3Cl)c(C3CC3)nn12 [UNC10225469A] | 0

----------
Recorded inhibition at 1 µM for the following molecules
# Target under test: GAK (Homo sapiens)
# Sequence (O14976 whole entry): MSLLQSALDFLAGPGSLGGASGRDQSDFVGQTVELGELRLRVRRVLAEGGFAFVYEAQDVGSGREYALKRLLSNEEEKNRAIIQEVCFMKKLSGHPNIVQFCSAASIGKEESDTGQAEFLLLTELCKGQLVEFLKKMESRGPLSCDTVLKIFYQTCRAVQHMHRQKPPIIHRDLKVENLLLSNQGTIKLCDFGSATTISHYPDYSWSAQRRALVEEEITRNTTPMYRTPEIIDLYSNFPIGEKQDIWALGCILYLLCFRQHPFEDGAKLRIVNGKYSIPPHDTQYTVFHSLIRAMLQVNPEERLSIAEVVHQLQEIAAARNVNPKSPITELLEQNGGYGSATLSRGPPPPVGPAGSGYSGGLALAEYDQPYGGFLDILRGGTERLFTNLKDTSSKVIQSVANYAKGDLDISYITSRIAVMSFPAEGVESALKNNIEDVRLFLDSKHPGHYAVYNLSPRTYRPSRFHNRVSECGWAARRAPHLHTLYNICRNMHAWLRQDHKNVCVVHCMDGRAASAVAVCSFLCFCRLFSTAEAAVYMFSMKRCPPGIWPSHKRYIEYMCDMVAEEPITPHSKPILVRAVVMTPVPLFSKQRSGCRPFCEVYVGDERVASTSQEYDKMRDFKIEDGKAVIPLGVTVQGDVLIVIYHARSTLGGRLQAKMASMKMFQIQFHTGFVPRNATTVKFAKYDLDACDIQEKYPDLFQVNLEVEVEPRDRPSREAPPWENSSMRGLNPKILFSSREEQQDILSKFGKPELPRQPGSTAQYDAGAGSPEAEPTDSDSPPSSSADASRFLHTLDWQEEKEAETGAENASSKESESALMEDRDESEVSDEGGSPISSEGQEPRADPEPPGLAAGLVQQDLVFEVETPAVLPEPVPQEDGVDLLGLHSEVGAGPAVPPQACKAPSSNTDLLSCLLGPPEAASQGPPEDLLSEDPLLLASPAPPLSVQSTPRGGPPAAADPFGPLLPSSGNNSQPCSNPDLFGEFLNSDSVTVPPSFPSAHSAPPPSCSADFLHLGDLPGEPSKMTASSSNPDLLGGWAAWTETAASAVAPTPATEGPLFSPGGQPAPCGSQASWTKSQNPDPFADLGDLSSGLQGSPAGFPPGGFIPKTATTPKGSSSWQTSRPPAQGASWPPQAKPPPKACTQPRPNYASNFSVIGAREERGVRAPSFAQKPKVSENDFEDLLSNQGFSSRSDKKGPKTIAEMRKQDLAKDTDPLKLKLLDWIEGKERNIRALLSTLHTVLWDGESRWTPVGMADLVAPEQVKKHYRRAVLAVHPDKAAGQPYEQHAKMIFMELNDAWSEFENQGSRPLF
# Protocol details: KINOMEscan competition binding
# Experimental parameters: read-out: %Inh GAK
Observed property: inhibition at 1 µM (%)

Molecule | Meas value
CS(=O)(=O)Cc1ccc(Nc2nccc(-c3c(-c4cccc(NC(=O)C5CCCCC5)c4)nn4ncccc34)n2)cc1 [UNC10225159A] | 14
O=c1cc(N2CCOCC2)nc2n(Cc3cccc(Cl)c3Cl)c(C3CC3)nn12 [UNC10225469A] | 11
Cc1ccc(NC(=O)Nc2cccc(C(F)(F)F)c2)cc1 [UNC10225187A] | 0
Cn1cc(-c2cnc(N)c3c(-c4ccc5c(c4)CCN5C(=O)Cc4ccccc4)csc23)cn1 [UNC10225012A] | 11
COc1cccc(OC)c1C(=O)Nc1cccc(-c2nn3ccccc3c2-c2ccnc(Nc3cccc(F)c3)n2)c1 [UNC10225310A] | 6

----------
# Target under test: ITK (Homo sapiens, UniProt Q08881)
# Sequence (Q08881 whole entry): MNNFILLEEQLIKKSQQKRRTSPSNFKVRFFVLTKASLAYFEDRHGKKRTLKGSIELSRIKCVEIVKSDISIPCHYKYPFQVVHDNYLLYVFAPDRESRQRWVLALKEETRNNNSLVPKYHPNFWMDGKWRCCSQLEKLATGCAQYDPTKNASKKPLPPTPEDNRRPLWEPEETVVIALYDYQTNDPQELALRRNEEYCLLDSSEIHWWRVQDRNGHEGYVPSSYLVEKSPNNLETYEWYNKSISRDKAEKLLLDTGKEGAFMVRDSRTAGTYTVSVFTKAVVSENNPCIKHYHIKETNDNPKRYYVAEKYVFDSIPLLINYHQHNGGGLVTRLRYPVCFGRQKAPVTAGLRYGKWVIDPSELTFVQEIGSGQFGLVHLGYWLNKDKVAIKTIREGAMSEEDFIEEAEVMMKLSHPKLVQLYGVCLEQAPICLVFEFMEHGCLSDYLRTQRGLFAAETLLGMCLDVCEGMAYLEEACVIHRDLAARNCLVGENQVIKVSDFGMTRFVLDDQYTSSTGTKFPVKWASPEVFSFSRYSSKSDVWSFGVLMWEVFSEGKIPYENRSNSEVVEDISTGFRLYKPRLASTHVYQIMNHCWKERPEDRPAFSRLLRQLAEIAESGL
# Protocol details: KINOMEscan competition binding
# Experimental parameters: read-out: %Inh ITK

Compound | inhibition at 1 µM
Cc1ccc(NC(=O)Nc2cccc(C(F)(F)F)c2)cc1 [UNC10225187A] | 12%
CS(=O)(=O)Cc1ccc(Nc2nccc(-c3c(-c4cccc(NC(=O)C5CCCCC5)c4)nn4ncccc34)n2)cc1 [UNC10225159A] | 6%
O=c1cc(N2CCOCC2)nc2n(Cc3cccc(Cl)c3Cl)c(C3CC3)nn12 [UNC10225469A] | 4%
COc1cccc(OC)c1C(=O)Nc1cccc(-c2nn3ccccc3c2-c2ccnc(Nc3cccc(F)c3)n2)c1 [UNC10225310A] | 93.8%
Cn1cc(-c2cnc(N)c3c(-c4ccc5c(c4)CCN5C(=O)Cc4ccccc4)csc23)cn1 [UNC10225012A] | 23%
